- assay-remarks: qHTS Assay for Enhancers of SMN2 Splice Variant Expression; also: nearly all actives have a fitted effect of over 55% in size
- measurement-context: HEK293 SMN2-luciferase splicing reporter, luminescence, 30-36 h; series mostly up to 46.1 µM
Hit rate of the full screen: of about 210,000 compounds, about 5,900 (2.8%) were called active. About 5% were inconclusive and are not listed. Calls follow the shape of the dose curve; as a rule, active = well fitted activation curve with a large enough effect; inconclusive = small, poorly fitted or top-dose-only effect; inactive = no such curve, though single readings can be large or run the other way. This is one part of a sample in which actives are shown more often than they occur.
Labels: active, inactive

> print(dat)
                                 smiles.str  category.label
1  CC(=O)Oc1ccccc1C(=O)Nc1ncc([N+](=O)[O-])s1          active
2          CC(C)(C)c1ccc(OC(=O)N2CCCCC2)cc1          active
3              O=C(OCC(=O)c1cccs1)C1=COCCO1          active
4  COc1cccc(C(=O)Nc2ccc(-c3cc(C(F)(F)F)nn3-c3ccccc3)cc2)c1        inactive
5       CC(C)Oc1ccc(NC(=O)c2cc3ccccc3o2)cc1          active
6    O=C(Nc1cccc(OC(=O)N2CCCCC2)c1)N1CCOCC1        inactive
